B1: library; a variant is named by its letters at N, in order (parent)
chain: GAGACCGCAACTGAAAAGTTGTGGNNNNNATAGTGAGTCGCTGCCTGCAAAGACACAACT

Variants of: B1
Assay: ligation selection enrichment (abundance after / before one-round selection) (fold); higher = more template-directed ligation activity
Conditions: with T7Psub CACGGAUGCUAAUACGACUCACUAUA; MgCl2 25 mM; 42 °C; 4 h; pH 8.5
Listing: ligation selection enrichment of selected variants

QUERY_SEQUENCE	ligation selection enrichment
GAGACCGCAACTGAAAAGTTGTGGGACTTATAGTGAGTCGCTGCCTGCAAAGACACAACT [GACTT]	0.157
GAGACCGCAACTGAAAAGTTGTGGACGAAATAGTGAGTCGCTGCCTGCAAAGACACAACT [ACGAA]	0.734
GAGACCGCAACTGAAAAGTTGTGGGAGGTATAGTGAGTCGCTGCCTGCAAAGACACAACT [GAGGT]	0.143
